system: A549 NSCLC; assay: NCI tumour cell line growth inhibition, 48 h
I'd appreciate it if you could supply TGI values for the items below.

1) O=C(O)CCCSc1ccccc1	> 100 µM
2) COc1cc(-c2ccc(-c3ccc(C(=N)N)nc3)s2)cc(OC)c1OC	4.51 µM
3) Cn1nc(-c2ccccc2)c(C(=O)/C=C/c2ccc(Cl)cc2)c(N2CCCCC2)c1=O	8.65 µM

Hi team, please reply with TGI for each item in this list.
1. c1ccc(C2=NCCN2)c(C2=NCCN2)c1
2. CCn1c(SCC(=O)N/N=C/c2ccccc2)nc2ccccc2c1=O
3. CC(NO)/C(=N/O)c1ccco1 (stereo unspecified)

Ans.
1: > 100 µM; 2: > 46.4 µM; 3: > 10 µM
